The measured values listed here are drawn from PubChem BioAssay AID1310.

protocol-summary: STAT3 reporter inhibition by STAT1 hits, counter-screen for STAT1 inhibitor project, U3A cells, luciferase, luminescence, triplicate (AID 1310);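 also: 0% = IL-6 plus DMSO and 100% = IL-6 plus nifuroxazide control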
experimental-setup: IL-6 STAT3 luciferase reporter, at 5.7 µM, stronger effect = higher value, cells lacking STAT1
This is one part of the list.
Please go through the items and note down their inhibition.
// note: answer is a bare numeric in %

Entry under review: COC(=O)C1=CN(Cc2ccc(OC)c(OC)c2)C=C(C(=O)OC)C1c1cccs1 . Reported inhibition?
-3.35

Proceed to O=C(CCl)N(Cc1cccc([N+](=O)[O-])c1)c1cccc(Cl)c1
47

Proceed to CCOC(=O)N1CCN(C(=O)C2CCN(c3ncnc4c3sc3cccc(F)c34)CC2)CC1
4.65

Proceed to COc1ccc(C(=O)Nc2ccccc2C(=O)N/N=C/c2ccccc2OC)cc1
-7.2

Proceed to Cc1ccc(C2=Nc3c(ccc4ccccc34)C(c3ccncc3)=NN2)cc1
-38.9

Proceed to COc1ccc(C2CC(c3cccs3)=NN2c2nc(C)c(C(C)=O)s2)cc1OC (stereo unspecified)
13.4
